# assay_notes: Cytotoxicity against human WI-38 cells assessed as reduction in cell viability measured after 48 hrs by MTT assay
# Assay type: toxicity, cell-based
experimental_endpoint: IC50 at 48 h (µM)
Number in µM, nothing else.

Field: example entries. Status: answers known.
{"line_notation": "O=C(Cn1cc(COc2cc(OCc3cn(CC(=O)Nc4ccc(S(=O)(=O)Nc5ccccn5)cc4)nn3)c3c(-c4ccccc4)cc(=O)oc3c2)nn1)Nc1ccc(S(=O)(=O)Nc2ccccn2)cc1", "unit_symbol": "µM", "IC50 at 48 h": 46.6}
{"line_notation": "Cc1cc(C)nc(NS(=O)(=O)c2ccc(-n3cc(COc4cc(OCc5cn(-c6ccc(S(=O)(=O)Nc7nc(C)cc(C)n7)cc6)nn5)c5c(-c6ccccc6)cc(=O)oc5c4)nn3)cc2)n1", "unit_symbol": "µM", "IC50 at 48 h": 46.6}

Attention now turns to another entry.
Item under review: O=c1cc(-c2ccccc2)c2c(OCc3cn(-c4ccc(S(=O)(=O)Nc5ccccn5)cc4)nn3)cc(OCc3cn(-c4ccc(S(=O)(=O)Nc5ccccn5)cc4)nn3)cc2o1 . Reported IC50 at 48 h?
46.6
